Consider the following binders; for each one, report its Percent Inhibition of CXCR4/CXCL12 Binding (400 nM peptide).
TARGET_UNDER_TEST: T1, SNAP tagged-CXC4 receptor labeled with terbium (Tag-lite CXCR4 cells, HEK293) (UniProt P61073 1-352, SNAP tag labeled with terbium fluorescent dye)
T1 construct: whole, on cells; Bought frozen cells (PerkinElmer-CisBio), HEK293 transiently expressing the receptor; also called terbium labeled CXCR receptor
METHOD_DESCRIPTION: HTRF competition on Tag-lite CXCR4 HEK293 cells; competitor labelled CXCL12
Square brackets hold non-standard residues; d marks the D form. Ends that are not written are not given here.

Asked: Given LRRYHHSVESSLRPYTK [SEQ ID NO: 62] , state its recorded Percent Inhibition of CXCR4/CXCL12 Binding (400 nM peptide).
Given back: 4%

Asked: Quick one: LERYHHSVRSSLRPYSK [SEQ ID NO: 75]
Given back: 81%

Asked: Quick one: LRDYHHSVRSSLRPYTK [SEQ ID NO: 36]
Given back: -11%

Asked: Quick one: LRRYHHSVRSS [SEQ ID NO: 29]
Given back: 14%

Asked: Quick one: LDRYHHSVRSSLRPYTK [SEQ ID NO: 7]
Given back: 89%

Asked: Quick one: LRRYHHSVRSSLRGYTK [SEQ ID NO: 79]
Given back: 12%

Asked: Quick one: LRRYHHSVDSSLRPYTK [SEQ ID NO: 66]
Given back: -5%

Asked: Quick one: LERYHHSVRSS [SEQ ID NO: 23]
Given back: 23%

Asked: Quick one: LERYHNSVRSSLRPYTK [SEQ ID NO: 45]
Given back: 1%

Asked: Quick one: LRRYHQSVRSSLRPYTK [SEQ ID NO: 50]
Given back: -5%

Asked: Quick one: [dA]ERYHHSVRSSLRPYTK [SEQ ID NO: 34]
Given back: -17%

Asked: Quick one: SVRSSLRPYTK [SEQ ID NO: 15]
Given back: -11%

Asked: Quick one: LERYHQS[dA]RSSLRPYTK [SEQ ID NO: 52]
Given back: -2%

Asked: Quick one: LRRYHHS[dA]ESSLRPYTK [SEQ ID NO: 64]
Given back: -6%

Asked: Quick one: LERYHHSVRSSLRPYTK [SEQ ID NO: 4]
Given back: 88%

Asked: Quick one: LRRYNHSVRSSLRPYTK [SEQ ID NO: 41]
Given back: -2%

Asked: Quick one: LRRYHHTVRSSLRPYTK [SEQ ID NO: 38]
Given back: 12%

Asked: Quick one: LRRYHHSVRSSLEPYTK [SEQ ID NO: 63]
Given back: 9%

Asked: Quick one: LRRFHHSVRSSLRPYTK [SEQ ID NO: 53]
Given back: 5%
